Below: a set of entries, each annotated with reported LogP.
assay: Measurement of LogP values by HPLC on reversed phase columns (EEC directive 79/831 Annex V.A8); type: physicochemical
Marks after values point to notes of the source that are not given here.

Cc1ccc(C(C)(C)C)c(CNC(=O)c2snc(N)c2Cl)c1 [I-329]: 3.46[a]

Complete the entry with LogP for C[C@H](NC(=O)c1snc(N)c1Br)C1CCCCC1 [I-818]
2.84[a]

Please report the measured LogP for Nc1nsc(C(=O)NCC2CCCCC2(F)F)c1Cl (centres unmarked) [I-1294]
2.07[a]

Could you please provide reported LogP for Nc1nsc(C(=O)NCC2CC=CCC2)c1Cl (centres unmarked) [I-085] ? Thanks!
2.14[a]

In one line, give reported LogP of the entry COc1ccc(CNc2nsc(C(=O)NC3CCCC(C)C3C)c2Cl)cc1 (centres unmarked) [I-1210] .
4.46[a]

Give reported LogP value for O=C(Nc1nsc(C(=O)NCc2ccc(Cl)cc2)c1Cl)c1ccccc1 [I-569]
2.97[a]

Identify measured LogP corresponding to Cc1ccc(NC(=O)c2snc(N)c2Cl)cc1 [I-916]
2.27[a]

Entry Nc1cc(C(=O)NCC2CCCC2O)sn1 (centres unmarked) [I-774] needs its LogP filled in; supply it.
0.63[a]

Find the measured LogP of O=C(c1cc(N(Cc2ccccc2)Cc2ccccc2)ns1)N(Cc1c(Cl)cccc1Cl)C1CC1 [I-939] and report it.
5.90[a]

---

assay: Measurement of LogP values by HPLC on reversed phase columns (EEC directive 79/831 Annex V.A8); format: physicochemical
Marks after values point to notes of the source that are not given here.
READOUT TYPE: LogP

Observe how each entry below is paired with its result.
Nc1nsc(C(=O)NCc2cc(F)cc(F)c2)c1Cl [I-024]: 2.11[a]
COc1ccc(CNc2nsc(C(=O)NOc3ccccc3)c2Cl)cc1 [I-1031]: 3.17[a]
O=C(NC1CCCC2CCCCC21)c1snc(NCC(F)(F)F)c1NCC(F)(F)F (stereo not shown) [I-631]: 4.82[a]
CCC1CC(C)CC(CC)C1NC(=O)c1snc(NCc2ccc(OC)cc2)c1Cl (stereo not shown) [I-1191]: 6.02[a]
COc1ccc(CNc2nsc(C(=O)Nc3ccc(F)cc3F)c2Cl)cc1 [I-856]: 3.83[a]
Cc1c(N)nsc1C(=O)NCC1CCCC1O (single isomer, unassigned) [I-707]: 0.82[a]

Kindly indicate its recorded LogP. Item: Nc1nsc(C(=O)Nc2cccc3c2CCC3)c1Cl [I-926]
2.75[a]

Identify measured LogP corresponding to Nc1nsc(C(=O)NCCc2ccccc2F)c1Cl [I-972]
2.11[a]

Respond only with LogP recorded for COc1ccc(CNc2nsc(C(=O)NCc3cccc4ccccc34)c2Cl)cc1 [I-1268]
4.11[a]

---

assay: Measurement of LogP values by HPLC on reversed phase columns (EEC directive 79/831 Annex V.A8); format: physicochemical
Marks after values point to notes of the source that are not given here.
READOUT TYPE: LogP

Cc1c(N)nsc1C(=O)NCc1cccc(F)c1F: 1.64[a]

Given `Nc1nsc(C(=O)NCc2cc(F)cc(F)c2F)c1Cl` , respond with its LogP.
2.03[a]

Supply reported LogP belonging to this compound: `O=C(NCc1cccc(F)c1)c1cc(N(Cc2ccccc2)Cc2ccccc2)ns1`
4.40[a]

---

experiment: Measurement of LogP values by HPLC on reversed phase columns (EEC directive 79/831 Annex V.A8); format: physicochemical
Marks after values point to notes of the source that are not given here.
READOUT TYPE: LogP

Worked examples follow.
Nc1nsc(C(=O)NCC2CCCC2)c1Cl [I-073]: 2.15[a]
Nc1nsc(C(=O)N[C@@H]2CCCC[C@H]2Cl)c1I (relative stereo) [I-1565]: 2.12[a]
COc1ccc(CNc2nsc(C(=O)NCc3csc4ccc(Cl)cc34)c2Cl)cc1 [I-1340]: 4.37[a]
COc1ccc(CNc2nsc(C(=O)NCc3cncs3)c2Cl)cc1 [I-1323]: 2.39[a]
Nc1nsc(C(=O)NCC2=CCCCC2)c1Cl [I-089]: 2.30[a]

Retrieve LogP measured for COc1ccc(CNc2nsc(C(=O)NCc3nc(C)cs3)c2Cl)cc1 [I-1203] and print it.
2.80[a]

Return LogP for the following compound: COc1ccc(CNc2nsc(C(=O)NCc3cnn(CC(F)F)c3)c2Cl)cc1 [I-1315]
2.58[a]

Please indicate LogP recorded for C[C@H](NC(=O)c1snc(N)c1C(F)F)C1CCCCC1 [I-270]
2.96[a]

Please give measured LogP of the following entry: COc1ccc(CN(C(=O)C(=O)N[C@H](C)C2CCCCC2)c2nsc(C(=O)N[C@H](C)C3CCCCC3)c2Cl)cc1 [I-072]
4.54[a]

---

assay: Measurement of LogP values by HPLC on reversed phase columns (EEC directive 79/831 Annex V.A8); assay type: physicochemical
Listed next: entries and their corresponding LogP [a].

Determine its reported LogP [a]: `O=C(NCCC1CCCCC1)c1snc(Cl)c1Cl`
4.40^[a]

Give reported LogP [a] value for `CS(C)=Nc1nsc(C(=O)NCc2c(F)cc(F)cc2F)c1Cl`
1.42^[a]

Supply reported LogP [a] belonging to this compound: `COc1ccc(CNc2cc(C(=O)O)sn2)cc1`
1.87^[a]

Answer with the recorded LogP [a] for the compound listed here: `CC(C)OC(=O)c1snc(N)c1Cl`
2.17

Check the records and state LogP [a] for `COc1ccc(CNc2nsc(C(=O)N3CCc4ccccc4C3)c2Cl)cc1`
3.68^[a]

---

Assay: Measurement of LogP values by HPLC on reversed phase columns (EEC directive 79/831 Annex V.A8)
Format: physicochemical
Experimental: The abbreviations and numerations of the substituent positions used in the context of the present invention and in the following Tables are explained in detail in the section Examples hereinafter. Also, the LogP values indicated in the following Tables are explained in detail in the section Examples hereinafter. […] Lambda-max-values were determined using UV-spectra from 200 nm to 400 nm and the peak values of the chromatographic signals
Marks after values point to notes of the source that are not given here.
READOUT TYPE: LogP

Recorded results for 4 molecules are shown here.
O=C(NC1CCCCC1)c1snc(N(Cc2ccccc2)Cc2ccccc2)c1-c1ccc(F)cc1: 5.98[a]
Nc1nsc(C(=O)NC2CCCCC2)c1Cl: 2.10[a]
CC(=O)N(C(C)=O)c1nsc(C(=O)N(C(C)C)C(C)C)c1Cl: 2.77[a]
COc1c(N)nsc1C(=O)NCC1CCCCO1 (centres unmarked): 1.31[a]

# next molecule below
Tell us which LogP value is on record for `CON(CC1CCCCC1)C(=O)c1snc(N)c1Cl`
3.04[a]

---

test: Measurement of LogP values by HPLC on reversed phase columns (EEC directive 79/831 Annex V.A8); format: physicochemical
Marks after values point to notes of the source that are not given here.
In this section we review reported LogP values for a set of molecules.

Cc1cc(C)cc(CN(C(=O)c2snc(N)c2Cl)C2CC2)c1: 3.15[a]
Nc1nsc(C(=O)NCC2CCCOC2)c1Cl (stereo not drawn): 1.07[a]
Nc1nsc(C(=O)N(Cc2c(F)cccc2Cl)C2CC2)c1Cl: 2.73[a]

Give the value of LogP reported for the following: `O=C(c1cc(N(Cc2ccccc2)Cc2ccccc2)ns1)N(Cc1cc(F)ccc1F)C1CC1`
5.25[a]

Report measured LogP; entry is `COc1cccc(CNC(=O)c2snc(N)c2Cl)c1`
1.75[a]

Please list LogP recorded for the molecule `Nc1nsc(C(=O)N(Cc2ccc(Cl)cc2Cl)C2CC2)c1Cl`
3.37[a]

Output measured LogP for this item: `COC(=O)Nc1nsc(C(=O)N[C@@H](C)C2CCCCC2)c1Cl`
2.84[a]

Identify measured LogP corresponding to COc1ccc(CNc2nsc(C(=O)NC(C)c3ccc(Cl)nc3)c2Cl)cc1 (stereo not drawn)
3.17[a]

Look up and state reported LogP for `O=C(NCCc1ncc(C(F)(F)F)cc1Cl)c1snc(N(Cc2ccccc2)Cc2ccccc2)c1Br`
5.97[a]

Give reported LogP value for `COc1ccc(CNc2nsc(C(=O)N(Cc3c(F)cccc3Cl)C3CC3)c2Cl)cc1`
4.44[a]

Indicate the recorded LogP value for this molecule: `Nc1nsc(C(=S)NCc2ccc(F)cc2F)c1Cl`
2.74[a]

Quickly give me recorded LogP for CN1C2CCC1CC(NC(=O)c1snc(N)c1Cl)C2 (stereo not drawn)
−0.20[c]

Consider the molecule `Nc1nsc(C(=O)NCC2(F)CCCC2)c1Cl` and give its recorded LogP.
1.81[a]

For the molecule `CCn1ncc(CNC(=O)c2snc(NCc3ccc(OC)cc3)c2Cl)c1C` , report LogP.
2.59[a]

Determine its reported LogP: CC1CCC(C)(CNC(=O)c2snc(N)c2Cl)CC1 (stereo not drawn)
3.17[a]

Identify measured LogP associated with `CCOc1c(N)nsc1C(=O)NCC1(O)CCCCC1`
1.55[a]

Output LogP of Nc1nsc(C(=O)NC2CCc3ccccc32)c1Cl (stereo not drawn)
2.30[a]

Give recorded LogP. `CCC1(CNC(=O)c2snc(NC(C)C)c2Cl)CCCCC1`
5.03[a]

Item CC1CCC(CNC(=O)c2snc(N)c2Cl)CC1 (stereo not drawn) : provide LogP
2.75[a]

Recall and state the measured LogP for `Nc1nsc(C(=O)NCC2(F)CCCCC2)c1Br` .
2.15[a]

Name the recorded LogP of the molecule listed here: `COc1ccc(CNc2nsc(C(=O)NCc3ccc(Cl)cc3)c2Cl)cc1`
3.99[a]

Using the record for Nc1nsc(C(=O)NCC2CCCCO2)c1Cl (stereo not drawn) , state its measured LogP.
1.47[a]
